Origin of the recorded values: ChEMBL document CHEMBL3576784

biological target: Beta-lactamase (Aeromonas veronii) (UniProt O31272); experiment: Inhibition of Aeromonas veronii metallo-beta-lactamase ImiS expressed in Escherichia coli BL21(DE3) assessed as imipenem antimicrobial MIC incubated at 37 degC for 12 hrs by macrodilution (tube) broth method
Sequence (O31272 as listed by the source): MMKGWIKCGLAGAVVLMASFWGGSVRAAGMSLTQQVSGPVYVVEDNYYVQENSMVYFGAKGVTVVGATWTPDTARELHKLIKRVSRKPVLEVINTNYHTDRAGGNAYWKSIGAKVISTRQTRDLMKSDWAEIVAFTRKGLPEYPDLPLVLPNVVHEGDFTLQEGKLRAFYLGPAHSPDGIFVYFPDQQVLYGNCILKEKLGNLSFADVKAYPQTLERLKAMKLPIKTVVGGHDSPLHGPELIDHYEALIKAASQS
recorded-endpoint: MIC (µg/mL)

Below are worked cases with known answers.
substance_smiles=O=C(CSc1nnc(-c2ccccc2C(=O)O)[nH]1)Nc1nc2ccccc2s1 recorded_endpoint=MIC observed_value=1
substance_smiles=O=C(CSc1nnc(-c2ccccc2C(=O)O)[nH]1)NCc1ccccc1 recorded_endpoint=MIC observed_value=1

1 = O=C(CSc1nnc(-c2ccccc2C(=O)O)[nH]1)Nc1ccccc1
2 = O=C(CSc1nnc(-c2ccccc2C(=O)O)[nH]1)Nc1cccc([N+](=O)[O-])c1
Hey, which is lower on measured MIC, 1 or 2 ? State the label of the item chosen.
2
